system: HOP-62 NSCLC; assay: NCI-60 one-dose screen, 48 h; details: 10 µM unless noted
Compounds without any hit were thinned out: in the full panel of roughly 83,000, 20% have a hit. Active and inactive are the calls of the source. How the source made its calls: active means growth percent below 10; inactive means the rest.
Pick one and only one: active, inactive

Reference set, count: 5
compound | classification
CCCCOC(=O)c1ccc(NC(=O)C(C)N2CCOCC2)cc1 (centres undefined) | inactive
CC(C)OC(=O)NNC(=O)c1ccncc1 | inactive
O=C(/C=C/C12c3ccccc3C(c3ccccc31)C1C(=O)NC(=O)C12)c1ccc(Cl)cc1 (centres undefined) | active
CN(CCCCCCCCNc1ccnc2ccccc12)Cc1ccc(-c2ccc(-c3ccc(C#N)cc3)s2)cc1 | active
c1ccc(-c2oc3ccccc3c2-c2ccccc2)cc1 | inactive

Problem: What was the test verdict on COc1ccc(C(=O)/C=C/c2cc3c(c(OC)c2)OCC(=O)N3)cc1 ?
Result: inactive

Problem: What was the test verdict on CCCCCCNCc1cc(C(C)(C)C)cc(CNCCCCCC)c1O ?
Result: active

Problem: What was the test verdict on CCn1c(Sc2nnc(NC(=O)CCN3CCCC3)s2)nc2c1c(=O)n(C)c(=O)n2C ?
Result: inactive

Problem: What was the test verdict on C[C@@H]1CC[C@@H]2[C@@H]1[C@H](OC(=O)/C=C/c1ccccc1)[C@]1(CCCOCCOCCOCCOC(=O)CCCC[C@@H]3SC[C@@H]4NC(=O)N[C@@H]43)C[C@@H](OC(=O)CO)[C@@]2(C)O1 ?
Result: inactive
